# TEST: Clearance in Sprague-Dawley rat at 10 mg/kg, iv
# Assay type: ADME, organism-based
# Design: dose 10 mg/kg, route intravenous
# CONDITIONS: in vivo
PARAMETER: clearance (mL/min/kg)
Answer with a number only, understood to be in mL/min/kg.

Name the recorded clearance for Clc1ccc(COc2ccccc2/C=N/OC2CCN(Cc3ccccc3)C2)cc1Cl (stereo unspecified) .
28.1

====

# TEST: Ratio of drug uptake in brain to drug uptake in plasma in Sprague-Dawley rat at 10 mg/kg, po
# Type: ADME, organism-based
# Set-up: dose 10 mg/kg, route oral
# CONDITIONS: read-out: BPR
PARAMETER: Kp
Lab note: jot the number down without any unit.

Name the recorded Kp for Clc1ccc(COc2ccccc2/C=N/OC2CCN(Cc3ccccc3)C2)cc1Cl (stereo unspecified) .
0.29
